Biological target: human CD33 N20L (human, UniProt P20138 18-364)
Sequence (P20138 18-364 N20L limits assumed): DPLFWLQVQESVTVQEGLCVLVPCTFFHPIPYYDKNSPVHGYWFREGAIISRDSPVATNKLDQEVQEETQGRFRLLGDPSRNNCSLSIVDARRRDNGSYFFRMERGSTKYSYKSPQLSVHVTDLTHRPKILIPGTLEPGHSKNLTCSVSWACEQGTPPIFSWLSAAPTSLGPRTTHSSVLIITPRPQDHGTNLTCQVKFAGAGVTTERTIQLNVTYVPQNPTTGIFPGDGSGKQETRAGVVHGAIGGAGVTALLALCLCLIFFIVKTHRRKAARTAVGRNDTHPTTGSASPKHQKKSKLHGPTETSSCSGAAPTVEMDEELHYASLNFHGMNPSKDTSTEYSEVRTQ
Test: flow cytometry, mutant on cells, IgG
endpoint name: Mean % WT Binding (% WT binding)
Respond with the bare value in % WT binding.

Please report Mean % WT Binding for the following binder: Refmab #1 (antibody, human IgG1, V domains shown, Tested in IgG format; human IgG1 (Absolute Antibody hP67.6, Cat. No. Ab00283-10.0); also called hP67.6) VH: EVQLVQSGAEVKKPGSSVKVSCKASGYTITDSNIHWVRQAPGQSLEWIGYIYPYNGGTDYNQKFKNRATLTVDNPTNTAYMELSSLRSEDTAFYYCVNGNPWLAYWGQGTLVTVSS VL: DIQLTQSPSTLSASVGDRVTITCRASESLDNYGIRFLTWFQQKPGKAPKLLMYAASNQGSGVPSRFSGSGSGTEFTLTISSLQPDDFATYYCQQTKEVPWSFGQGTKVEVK
78.5

Please report Mean % WT Binding for the following binder: Refmab #2 (antibody, human IgG1, V domains shown, Tested in IgG format; human IgG1 Fc silent (PG-LALA)) VH: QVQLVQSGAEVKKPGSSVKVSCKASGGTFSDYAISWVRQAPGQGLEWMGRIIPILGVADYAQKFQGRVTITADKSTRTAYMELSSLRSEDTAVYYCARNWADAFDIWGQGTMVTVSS VL: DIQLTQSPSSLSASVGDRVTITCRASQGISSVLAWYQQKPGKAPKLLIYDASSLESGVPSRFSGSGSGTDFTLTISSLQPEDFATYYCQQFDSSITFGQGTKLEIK
95.8

Please report Mean % WT Binding for the following binder: Refmab #3 (antibody, human IgG1, V domains shown, Tested in IgG format; human IgG1 Fc silent (PG-LALA)) VH: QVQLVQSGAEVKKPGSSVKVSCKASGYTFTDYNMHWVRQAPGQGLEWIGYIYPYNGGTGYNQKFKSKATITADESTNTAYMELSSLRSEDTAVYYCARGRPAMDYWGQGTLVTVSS VL: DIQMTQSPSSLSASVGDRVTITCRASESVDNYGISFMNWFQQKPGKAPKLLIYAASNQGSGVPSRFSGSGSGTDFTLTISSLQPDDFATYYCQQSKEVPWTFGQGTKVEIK
9.4
